Listed molecules paired with reported ΔG
biological target: E. coli β clamp (Escherichia coli, UniProt P0A988); construct: made in house; host or cells: E. coli BL21 (β); P1 by solid-phase synthesis; experiment: SPR competition assay: inhibition of P1-β interaction by challenging peptides; type: binding; details: SPR; ΔG = −RT ln Ki;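 note: SPR responses corrected for background, then fitted with a 1:1 Langmuir binding model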
Sequence (P0A988 whole entry): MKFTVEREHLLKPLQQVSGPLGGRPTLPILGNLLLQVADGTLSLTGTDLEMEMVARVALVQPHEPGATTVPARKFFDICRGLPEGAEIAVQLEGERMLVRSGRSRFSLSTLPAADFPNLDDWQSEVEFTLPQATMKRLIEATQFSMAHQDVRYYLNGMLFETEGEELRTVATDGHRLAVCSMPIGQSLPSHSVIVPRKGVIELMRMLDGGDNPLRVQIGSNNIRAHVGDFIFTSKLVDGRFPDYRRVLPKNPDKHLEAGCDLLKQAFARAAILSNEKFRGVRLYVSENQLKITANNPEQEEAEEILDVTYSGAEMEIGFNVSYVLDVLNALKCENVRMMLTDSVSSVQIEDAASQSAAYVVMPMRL
Express your answer in kcal/mol, writing the number without its unit.

Answered examples (2):
CC(=O)N[C@@H](CCC(N)=O)C(=O)N[C@@H](CC(C)C)C(=O)N[C@@H](CC(=O)O)C(=O)N[C@@H](CC(C)C)C(=O)N[C@@H](Cc1ccccc1)C(=O)O [Peptide P6, Ac-Gln-Leu-Asp-Leu-Phe-OH] = -8.22
CC(C)C[C@H](NC(=O)[C@H](CC(=O)O)NC(=O)[C@H](CC(C)C)NC(=O)[C@@H](N)CCC(N)=O)C(=O)N[C@@H](Cc1ccccc1)C(=O)O [Peptide P5, H-Gln-Leu-Asp-Leu-Phe-OH] = -6.87

GET /value?item= CC(=O)N[C@@H](CCC(N)=O)C(=O)N[C@@H](CCC(C)C)C(=O)N[C@@H](CC(=O)O)C(=O)N[C@@H](CC(C)C)C(=O)N[C@@H](Cc1ccccc1)C(=O)O [Peptide P9, Ac-Gln-Hol-Asp-Leu-Phe-OH] &field=ΔG returns -8.54

###

target: β ring (Escherichia coli, UniProt P0A988); construct: made in house; host or cells: E. coli BL21; experiment: Isothermal titration calorimetry (ITC) of peptides into β ring solution; assay type: binding, E. coli; details: from ITC data; compared to P7
Sequence (P0A988 whole entry): as above
Square brackets hold non-standard residues; d marks the D form. Peptide text beside a SMILES is read from it. Phe(3,4-Cl2) = N[C@@H](Cc1ccc(Cl)c(Cl)c1)C(=O)O; Phe(4-Br) = N[C@@H](Cc1ccc(Br)cc1)C(=O)O; Phe(4-Cl) = N[C@@H](Cc1ccc(Cl)cc1)C(=O)O; Cha = N[C@@H](CC1CCCCC1)C(=O)O
RESULT TYPE: ΔΔG (Kcal/mol) = ΔGj − ΔGi, reference i = P7 (kcal/mol)
Express your answer in kcal/mol, writing the number without its unit.

Answered examples (2):
CC(=O)N[C@@H](CCC(N)=O)C(=O)N[C@@H](CC1CCCCC1)C(=O)N[C@@H](CC(=O)O)C(=O)N[C@@H](CC(C)C)C(=O)N[C@@H](Cc1ccc(Cl)c(Cl)c1)C(=O)O [Peptide P14, Ac-Gln-Cha-Asp-Leu-(3,4-di-Cl)Phe-OH] (Ac-Q[Cha]DL[Phe(3,4-Cl2)]-OH) = -0.8
CC(=O)N[C@@H](CCC(N)=O)C(=O)N[C@@H](CC1CCCCC1)C(=O)N[C@@H](CC(=O)O)C(=O)N[C@@H](CC(C)C)C(=O)N[C@@H](Cc1ccc(Cl)cc1)C(=O)O [Peptide P12, Ac-Gln-Cha-Asp-Leu-pClPhe-OH] (Ac-Q[Cha]DL[Phe(4-Cl)]-OH) = -0.6

Moving on to another molecule below.
GET /value?item= CC(=O)N[C@@H](CCC(N)=O)C(=O)N[C@@H](CC1CCCCC1)C(=O)N[C@@H](CC(=O)O)C(=O)N[C@@H](CC(C)C)C(=O)N[C@@H](Cc1ccc(Br)cc1)C(=O)O [Peptide P13, Ac-Gln-Cha-Asp-Leu-pBrPhe-OH] (Ac-Q[Cha]DL[Phe(4-Br)]-OH) &field=ΔΔG (Kcal/mol) = ΔGj − ΔGi, reference i = P7 returns -0.28
